// protein stability index lookup, one value per entry
B1: CDC25A (parent)
chain: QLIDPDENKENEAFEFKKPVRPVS

- Variants of: B1
- EXPERIMENT NOTES: protein stability index of a GFP-peptide fusion (GPS, HEK-293T) (PSI 1-6); higher = more stable;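 further: lentivirally expressed fusions sorted by FACS into six bins by GFP to DsRed ratio, PSI derived from sequencing read proportions per bin multiplied by bin number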
- SETUP CONDITIONS: c terminus: a fixed tail appended
Answer as a number with no unit attached.

Use these answered entries as a reference point.
QLIDPDENKENEAFEFKKPVRPVF [S24F] = 3.88
QLIDPDENKENEAFEFKKPCRPVS [V20C] = 3.61
RLIDPDENKENEAFEFKKPVRPVS [Q1R] = 3.44
QLIDPDENKENEAFEFKKPVFPVS [R21F] = 2.74
QLIDPDENKENEQFEFKKPVRPVS [A13Q] = 4.02

The recorded protein stability index for QLIDPDENKENEAFEFKKPVRAVS [P22A] is 3.23

The recorded protein stability index for QLIDDDENKENEAFEFKKPVRPVS [P5D] is 3.92

The recorded protein stability index for QLIDPDENKENEAFEFKMPVRPVS [K18M] is 3.66

The recorded protein stability index for QLIDPDENKENEAFEFKKGVRPVS [P19G] is 4.06

The recorded protein stability index for QLIDPDEDKENEAFEFKKPVRPVS [N8D] is 4.28
